experimentalProtocol: recombinant UMI read abundance after kanamycin selection (control-corrected) (log10(CPM+1)); higher = more efficient recombination; extreme values may be limits of the assay; sequences stand for … in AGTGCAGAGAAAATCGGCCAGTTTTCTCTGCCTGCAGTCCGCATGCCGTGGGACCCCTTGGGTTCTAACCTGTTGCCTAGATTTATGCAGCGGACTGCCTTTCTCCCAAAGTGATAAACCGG…AGGTTGGTTTCACT; site = the 11-nt donor
Known recombinant UMI read abundance (log10) of a selection of sequences
Form field (numeric): enter value without unit.

inputsequence="CCGTTCACATGGACCGGTTTTCCCGGTAATCCGTATTTGCT (site CCGTTAACTAG)" quantity="recombinant UMI read abundance (log10)" observedresult=0
inputsequence="GACAAACCATGGACCGGTTTTCCCGGTAATCCGTATTTGAT (site GACAAACCTAG)" quantity="recombinant UMI read abundance (log10)" observedresult=0
inputsequence="TTTGCGGCATGGACCGGTTTTCCCGGTAATCCGTATTTGCA (site TTTGCGGCTTG)" quantity="recombinant UMI read abundance (log10)" observedresult=0.222

What measured recombinant UMI read abundance (log10) goes with GAGTGGACATGGACCGGTTTTCCCGGTAATCCGTATTTGAC (site GATTGGACTGT) ? 0

Could you do the same for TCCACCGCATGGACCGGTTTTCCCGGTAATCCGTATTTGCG (site TCCACCGCTCA) , please? 0.0193

Also CGCTCCTCATGGACCGGTTTTCCCGGTAATCCGTATTTGCC (site CCCTCCTCTGG) ? 1.72

* * *

experimentalProtocol: recombinant barcode read abundance after kanamycin selection (control-corrected) (log10(CPM+1)); higher = more efficient recombination; sequences stand for … in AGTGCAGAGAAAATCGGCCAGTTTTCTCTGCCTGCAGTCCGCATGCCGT…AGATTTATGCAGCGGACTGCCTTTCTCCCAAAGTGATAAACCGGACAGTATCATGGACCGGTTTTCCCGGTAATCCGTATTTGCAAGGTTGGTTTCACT; site = the 11-nt target
Response key: Y means recombinant barcode read abundance (log10) >= 0.1; N means recombinant barcode read abundance (log10) < 0.1.

// inclusive: recombinant barcode read abundance (log10) at least 0.1? input: TTCGAGTCTTGGGTTCTAACCTGTTGCGG (site TTCGAGTCTCC) Y

How about TAGCCGACTTGGGTTCTAACCTGTTGCTT (site TAGACGACTAA) ? Y

Would you mind doing GACTGGTCTTGGGTTCTAACCTGTTGCAT (site GACTGGTCTAT) as well? Y

Same question for TTAGGGGCTTGGGTTCTAACCTGTTGCCT (site TTAGGGGCTAG) please. Y

Now consider CCGCGTGCTTGGGTTCTAACCTGTTGCCT (site CAGCGTGCTAG) . Y

Similarly, GAAGGGACTTGGGTTCTAACCTGTTGCCT (site GAAGGGACTAG) ? Y

# repeat for ACGCCCTCTTGGGTTCTAACCTGTTGCCT (site GCGCCCTCTAG) Y

Field entry: GTGTCAGCTTGGGTTCTAACCTGTTGCCT (site GTGTCACCTAG) Y

Subsequent entry: TCCTAACCTTGGGTTCTAACCTGTTGCTG (site TCCTAACCTCA) Y

Here is the next sequence: CAGGGCCCTTGGGTTCTAACCTGTTGCCT (site AAGGGCCCTAG) Y

Can you check CGGCCGACTTGGGTTCTAACCTGTTGCGG (site CGGGCGCCTCC) next? Y

Input TTAGGGACTTGGGTTCTAACCTGTTGCCT (site TTAGGGACTAG) Y

Try TCCGTATCTTGGGTTCTAACCTGTTGCAG (site TCCGTATCTCT) next. Y

CTAAGCCCTTGGGTTCTAACCTGTTGCGG (site CTGAGCCCTCG) , same question. N

Moving on to ACCAATGCTTGGGTTCTAACCTGTTGCCT (site ACCAATACTAG) Y

Please answer likewise for GATGAGTCTTGGGTTCTAACCTGTTGCCT (site GATGAGTCTAA) Y

Same read-out for GGGAACACTTGGGTTCTAACCTGTTGCCA (site GGGAACACTTG) ? Y

Would you kindly repeat that for ATGAGTCCTTGGGTTCTAACCTGTTGCAA (site ATGAGTCCTTT) ? Y

Subsequent entry: GGACGCCCTTGGGTTCTAACCTGTTGCCT (site GGACGGCCTAG) Y

Proceed to ACGTGGCCTTGGGTTCTAACCTGTTGCTG (site ACTTGGCCTCA) Y

Now the sequence GCATCTACTTGGGTTCTAACCTGTTGCCT (site GCATCTACTAG) Y

Entry GTCACTACTTGGGTTCTAACCTGTTGCCG (site GTCGCTACTCG) please N
